Values were extracted from patent US10494332B2.

# measurementTarget: LYP (Homo sapiens, UniProt Q9Y2R2)
# Sequence (Q9Y2R2 whole entry): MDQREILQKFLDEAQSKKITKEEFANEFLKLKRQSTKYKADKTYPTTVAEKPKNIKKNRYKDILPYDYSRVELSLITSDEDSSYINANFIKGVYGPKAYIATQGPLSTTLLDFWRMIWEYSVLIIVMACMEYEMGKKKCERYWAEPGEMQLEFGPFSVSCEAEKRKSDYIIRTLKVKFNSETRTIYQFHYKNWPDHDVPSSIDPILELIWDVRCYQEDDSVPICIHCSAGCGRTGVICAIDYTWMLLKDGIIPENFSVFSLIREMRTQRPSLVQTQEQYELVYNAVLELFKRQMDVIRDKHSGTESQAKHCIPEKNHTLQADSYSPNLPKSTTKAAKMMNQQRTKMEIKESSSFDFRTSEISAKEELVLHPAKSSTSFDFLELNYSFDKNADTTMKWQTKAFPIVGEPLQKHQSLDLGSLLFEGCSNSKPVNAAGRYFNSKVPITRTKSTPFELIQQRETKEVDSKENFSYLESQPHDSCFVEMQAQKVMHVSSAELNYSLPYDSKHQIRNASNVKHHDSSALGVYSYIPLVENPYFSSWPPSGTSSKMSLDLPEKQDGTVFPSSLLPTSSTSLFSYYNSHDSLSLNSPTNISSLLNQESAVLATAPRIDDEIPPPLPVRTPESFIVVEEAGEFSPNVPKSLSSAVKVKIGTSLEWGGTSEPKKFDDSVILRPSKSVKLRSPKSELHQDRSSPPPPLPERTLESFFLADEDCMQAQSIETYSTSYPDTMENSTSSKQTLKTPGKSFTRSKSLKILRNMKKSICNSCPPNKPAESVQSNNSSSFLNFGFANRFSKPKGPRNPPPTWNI
# methodSummary: PTP inhibition assay (pNPP)
# Format: biochemical
# statedConditions: […]; LYP
Give pIC50 for every item shown.
// pIC50 is dimensionless: -log10 of concentration (M)

**Q:** What value of measured pIC50 is listed for O=C(Nc1ccc(N2CCOCC2)cc1)C(c1cccc(F)c1)S(=O)(=O)O (stereo not shown) ?
**A:** 5.00

**Q:** Also need CC(C)CCNC(=O)C(c1ccc2ccccc2c1)S(=O)(=O)O (stereo not shown) , thanks.
**A:** 4.94

**Q:** One more molecule: O=C(C(c1ccc(-c2ccccc2)cc1)S(=O)(=O)O)N1CCc2cc(Br)ccc21 (stereo not shown)
**A:** 4.80

**Q:** Now try O=C(NNc1ccccc1)C(c1ccc(-c2ccccc2)cc1)S(=O)(=O)O (stereo not shown) .
**A:** 4.70

**Q:** What about this molecule? O=C(NNc1ccccc1)C(c1ccc([N+](=O)[O-])cc1)S(=O)(=O)O (stereo not shown)
**A:** 5.00

**Q:** Further, for O=C(Nc1ccc(N2CCOCC2)cc1)C(c1ccc(Br)cc1)S(=O)(=O)O (stereo not shown) ?
**A:** 5.13

###

# measurementTarget: UniProtKB Q38AT7
# Sequence (Q38AT7 entry or part of it): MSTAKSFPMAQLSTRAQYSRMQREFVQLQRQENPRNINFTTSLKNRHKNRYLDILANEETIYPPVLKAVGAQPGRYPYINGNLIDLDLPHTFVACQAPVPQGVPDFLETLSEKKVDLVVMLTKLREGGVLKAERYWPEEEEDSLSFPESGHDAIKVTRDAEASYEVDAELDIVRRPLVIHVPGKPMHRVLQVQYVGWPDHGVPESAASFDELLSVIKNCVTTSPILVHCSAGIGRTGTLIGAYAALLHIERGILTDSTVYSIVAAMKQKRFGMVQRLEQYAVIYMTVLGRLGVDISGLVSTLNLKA
# methodSummary: PTP inhibition assay (pNPP)
# Format: biochemical
# statedConditions: pNPP at Km, pH 7.0, 25° C.; read-out: IC50 TbPTP1
pIC50: −log10 of the molar value.
readoutType: pIC50

**Q:** Observed pIC50 on UniProtKB Q38AT7 for O=C(Nc1nc2ccccc2s1)C(c1ccccc1)S(=O)(=O)O (stereo not drawn) [Compound L319N15] , please.
**A:** < 3.70

**Q:** Moving on to the next molecule: O=C(NCCNC(=O)C(c1ccccc1)S(=O)(=O)O)c1cccc(C(=O)c2ccccc2)c1 (stereo not drawn) [Compound L319-02-A60]
**A:** < 3.70

**Q:** Now consider "O=C(CS(=O)(=O)O)Nc1ccc2nc(C(F)(F)F)[nH]c2c1" and answer again.
**A:** < 4.00

**Q:** Same for CCCCc1ccc(NC(=O)C(=O)Nc2ccccc2NC(=O)C(c2ccccc2)S(=O)(=O)O)cc1 (stereo not drawn) [Compound L319-21-M06]
**A:** < 4.30

**Q:** Now give it for O=C(Nc1ccc(-c2ccccc2)cc1)C(c1ccccc1)S(=O)(=O)O (stereo not drawn) [Compound L319N08] too.
**A:** < 4.00

**Q:** How about this molecule: O=C(Nc1cnc2ccccc2c1)C(c1ccccc1)S(=O)(=O)O (stereo not drawn) [Compound L319M88]
**A:** < 3.70

**Q:** Another molecule: O=C(Nc1ccc2nc(C(F)(F)F)[nH]c2c1)C(c1ccccc1)S(=O)(=O)O (stereo not drawn) [Compound L319M54]
**A:** < 3.70

**Q:** Now give it for O=C(Nc1ccc(OCc2ccccc2)c(Cl)c1)C(c1ccccc1)S(=O)(=O)O (stereo not drawn) [Compound L319M50] too.
**A:** < 4.00

**Q:** "O=C(CS(=O)(=O)O)Nc1cnc2ccccc2c1" ?
**A:** < 4.00

###

# measurementTarget: SHP2/E508A (Homo sapiens, UniProt Q06124, E508A)
# Sequence (Q06124 224-528 E508A): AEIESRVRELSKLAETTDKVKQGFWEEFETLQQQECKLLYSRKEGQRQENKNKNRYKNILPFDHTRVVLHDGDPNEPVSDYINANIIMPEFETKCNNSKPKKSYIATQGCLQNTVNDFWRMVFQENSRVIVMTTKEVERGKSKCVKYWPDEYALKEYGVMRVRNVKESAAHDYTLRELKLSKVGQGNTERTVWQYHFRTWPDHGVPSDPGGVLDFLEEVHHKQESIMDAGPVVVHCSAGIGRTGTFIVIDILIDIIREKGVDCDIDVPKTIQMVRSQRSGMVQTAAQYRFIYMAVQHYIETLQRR
# methodSummary: SHP2 mutant inhibition assay (pNPP)
# statedConditions: pH 7.0
readoutType: pIC50
Remember, pIC50 is on a log scale: it is -log10 of the molar concentration.

**Q:** What value of measured pIC50 is listed for NC(=O)c1cc[n+](CC2=C(C(=O)O)N3C(=O)[C@@H](NC(=O)[C@@H](c4ccccc4)S(=O)(=O)[O-])[C@H]3SC2)cc1 [Cefsulodin, reference compound] ?
**A:** 4.72
